Each record here notes measured activation.
Test system: Nuclear hormone receptor DAF-12 (Heterodera glycines), GAL4 fusion
Method: H. glycines DAF-12 receptor agonists, primary screen, cell-based, luminescence, HEK293, GAL4 fusion, UAS-luciferase (AID 687014);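 further: 0% = DMSO wells and 100% = sodium butyrate wells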
Experimental Context: HEK293 GAL4-hgDAF12 UAS-luciferase reporter, agonist luminescence; at 6.8 µM; active compounds read high; normalized to butyrate control
Screen size: about 370,000 compounds; about 6,800 (1.8%) were called active. For the sample, actives were picked, then their nearest neighbours and some compounds at random.
Response body: numeric value in %, unit text excluded.

Some solved cases for reference:
[
  {
    "Compound": "CC[C@@H](CCC(=O)N(c1ccccc1)c1ccccc1)C1CC1",
    "activation, %": 0.58
  },
  {
    "Compound": "CCCC(=O)NC(=S)Nc1ccc(CN2CCOCC2)cc1",
    "activation, %": 0
  },
  {
    "Compound": "O=c1oc(/C=C/c2ccccc2)nc2ccccc12",
    "activation, %": 16
  },
  {
    "Compound": "O=c1oc(-c2ccccc2NS(=O)(=O)c2ccc(Cl)cc2)nc2ccccc12",
    "activation, %": 0.61
  },
  {
    "Compound": "S=c1[nH]nc(/C=C/c2ccccc2)o1",
    "activation, %": 4.59
  },
  {
    "Compound": "O=C(CSc1nc2c(c(=O)[nH]1)CCCC2)N1CCCCC1",
    "activation, %": -4.02
  }
]

So, CN(CCc1ccccc1)C(=O)Cn1nc(-c2ccccc2)ccc1=O ? Its activation was 1.22

So, COc1ccc(CC(=O)Nc2cc(S(=O)(=O)N3CCCCC3)ccc2N2CCN(C)CC2)cc1 ? Its activation was -1.77

So, CC(C)CNC(=O)OCc1cn(Cc2ccc(F)cc2)nn1 ? Its activation was 0.8

So, COC(=O)c1ccc(NC(=S)NN2CCOCC2)cc1 ? Its activation was 10.6

So, Cc1[nH]nc2c1C(c1ccc(Br)cc1)NC2=O (configuration not stated) ? Its activation was 0.07

So, COC(=O)c1ccc(NC(=S)Nc2cccc(C)n2)cc1 ? Its activation was 1.63

Data provenance: PubChem BioAssay AID687014
